Catalogue of compounds with associated LD50
Assay Overview: Acute toxicity, oral, LD50 (Litchfield and Wilcoxon)
Test Context: mouse, in vivo, fasted male mice, confidence limits p=95% in brackets
Attribute Measured: LD50

>>> meas_value("CCCCCCCCNC(C)C(O)c1ccc2c(c1)CCCC2 (stereo not shown)")
"~2300 mg/kg"
>>> meas_value("CC(NCCCCc1ccccc1)C(OC(=O)C1CCCCC1)c1ccc2c(c1)CCS2 (stereo not shown)")
"> 4000 mg/kg"
>>> meas_value("CC(NCCOc1ccc(Cl)cc1)C(O)c1ccc2c(c1)CCCS2 (stereo not shown)")
"> 4000 mg/kg"
>>> meas_value("CC1Cc2cc(C(O)C(C)NCCOc3ccccc3)ccc2O1 (stereo not shown)")
"550 mg/kg"
>>> meas_value("CC(NCCCC(=O)c1ccc(F)cc1)C(O)c1ccc2c(c1)CCCS2 (stereo not shown)")
"> 4000 mg/kg"
>>> meas_value("CC(NCCOc1ccccc1)C(O)c1ccc2c(c1)CCS2 (stereo not shown)")
"> 4000 mg/kg"
>>> meas_value("CCCCCCCCNC(C)C(O)c1ccc2c(c1)CCC(C)S2 (stereo not shown)")
"4000 mg/kg"
>>> meas_value("CC(NCCCCSc1ccccc1)C(O)c1ccc2c(c1)CCCS2 (stereo not shown)")
"> 4000 mg/kg"
>>> meas_value("CC(NCCOc1ccc(Cl)cc1)C(O)c1ccc2c(c1)CCC2 (stereo not shown)")
"> 4000 mg/kg"
>>> meas_value("CC1CSc2ccc(C(O)C(C)NCCCc3ccccc3)cc2C1 (stereo not shown)")
"> 4000 mg/kg"
